molecular target: HLA-A*02:01; assay: IEDB peptide-MHC binding, purified MHC/competitive/fluorescence; bounds were set here for any values at or beyond the usual limits of such assays; conditions: source organism: Vaccinia virus Copenhagen
pIC50: −log10 of the molar value.
endpoint: pIC50

Use the examples below as a reference point.
sequence.data	pIC50
VVANVIGLS	4.57
DSLSSQMTS	≤ 3.62

Kindly review the next sequence as well.
Request: Form field: reported pIC50 of "CSSISIKLT"
Result: ≤ 3.14

---

target: HLA-B*18:01; assay: IEDB peptide-MHC binding, purified MHC/direct/fluorescence; filed as Kd, often an IC50 or EC50 that approximates it; bounds were set here for any values at or beyond the usual limits of such assays; settings: source organism: Giardia lamblia ATCC 50803
endpoint: Kd

Request: // lookup Kd for "VSSKKCTAL"
Result: ≥ 20 µM
